For each entry below, report its IC50 value.
- TESTED TARGET: PTP-1B (Homo sapiens)
- Construct: PTP-1B (purified, 1 mg/mL) as a 1:250 dilution
- Sequence (P18031 1-321 limits assumed): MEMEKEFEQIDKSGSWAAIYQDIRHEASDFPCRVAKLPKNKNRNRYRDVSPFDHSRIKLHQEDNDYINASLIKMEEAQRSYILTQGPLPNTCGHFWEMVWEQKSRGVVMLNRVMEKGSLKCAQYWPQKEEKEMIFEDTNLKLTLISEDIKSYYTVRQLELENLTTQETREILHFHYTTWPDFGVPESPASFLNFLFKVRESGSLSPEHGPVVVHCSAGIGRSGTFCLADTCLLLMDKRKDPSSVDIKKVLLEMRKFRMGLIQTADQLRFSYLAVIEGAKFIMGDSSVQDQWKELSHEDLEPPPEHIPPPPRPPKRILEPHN
- PROCEDURE SUMMARY: pNPP tyrosine phosphatase inhibition assay, PTP-1B
- Type: biochemical
- SETTINGS: pNPP assay, PTP-1B; read-out: Activity Class (IC50 ranges)
- Procedure: The compounds provided herein are evaluated for biological activity as inhibitors of PTP-1B using, for example, a pNPP assay can be used to screen compounds for tyrosine phosphatase inhibitory activity as described in the Examples. A 5× stock of pNPP (p-nitrophenol phosphate) substrate is prepared as 50 mM pNPP in assay buffer. […]

# MOLECULE, OBSERVATION TYPE, TEST RESULT
rows = [
    ("COc1ccccc1S(=O)(=O)N(Cc1ccc(C(F)(F)P(=O)(O)O)c(Cl)c1)C(C)c1ccccc1 (centres unmarked)", "IC50", "2500 to 25000 nM"),
    ("NC(=O)c1cccc(S(=O)(=O)N(Cc2ccc(C(F)(F)P(=O)(O)O)c(Cl)c2)Cc2ccccc2-c2ccccc2)c1", "IC50", "250 to 499 nM"),
    ("COc1ccccc1S(=O)(=O)N(Cc1ccc(-c2cccc(C#N)c2)cc1)Cc1ccc(C(F)(F)P(=O)(O)O)c(Cl)c1", "IC50", "100 to 249 nM"),
    ("O=[N+]([O-])c1ccc(CN(Cc2ccc(Cl)c(Cl)c2)S(=O)(=O)c2ccccc2Cl)cc1", "IC50", "> 25000 nM"),
    ("O=P(O)(O)C(F)(F)c1ccc(CN(Cc2ccc(C(F)(F)P(=O)(O)O)cc2)C2CCCC2)cc1", "IC50", "> 25000 nM"),
    ("Cc1cc(C=C(C#N)C(=O)Nc2ccc3ccccc3c2)c(C)n1-c1ccc(C(=O)O)cc1", "IC50", "> 25000 nM"),
    ("COc1ccccc1S(=O)(=O)N(Cc1ccc(-c2ccc(Cl)c(C(=O)O)c2)cc1)Cc1ccc(C(F)(F)P(=O)(O)O)c(Cl)c1", "IC50", "< 99 nM"),
    ("COC(=O)c1ccccc1S(=O)(=O)N(Cc1ccc(C(F)(F)P(=O)(O)O)cc1)Cc1ccc(C(F)(F)P(=O)(O)O)cc1", "IC50", "2500 to 25000 nM"),
    ("O=P(O)(O)C(F)(F)c1ccc(CN(Cc2ccc(C(F)(F)P(=O)(O)O)cc2)S(=O)(=O)Cc2ccccc2)cc1", "IC50", "2500 to 25000 nM"),
    ("COc1ccccc1S(=O)(=O)N(Cc1ccc(-c2ccc(C#N)cc2)cc1)Cc1ccc(C(F)(F)P(=O)(O)O)c(Cl)c1", "IC50", "100 to 249 nM"),
]

Below are 4 molecules. Give each one its IC50.
1. CCOc1cccc(-c2ccccc2CN(Cc2ccc(C(F)(F)P(=O)(O)O)c(Cl)c2)S(=O)(=O)c2ccccc2OC)c1
2. COc1ccccc1S(=O)(=O)N(Cc1ccc(-c2ccc(CC#N)cc2)cc1)Cc1ccc(C(F)(F)P(=O)(O)O)c(Cl)c1
3. CCOC(=O)[C@H](C)NP(=O)(O)C(F)(F)c1ccc(CN(Cc2ccc(-c3cccc(C#N)c3)cc2)S(=O)(=O)c2ccccc2OC)cc1Cl
4. COc1ccccc1S(=O)(=O)N(Cc1ccc(-c2cccc(C#N)c2)cc1)Cc1ccc(C(F)(F)P(=O)(O)OC(C)OC(=O)OC(C)C)c(Cl)c1 (centres unmarked)

["< 99 nM", "100 to 249 nM", "250 to 499 nM", "2500 to 25000 nM"]

Below are 4 molecules. Give each one its IC50.
1. O=P(O)(O)C(F)(F)c1ccc(CN(Cc2ccc(C(F)(F)P(=O)(O)O)c(Br)c2)S(=O)(=O)c2ccc3ccccc3c2)cc1
2. COc1ccccc1S(=O)(=O)N(Cc1ccc(C(F)(F)P(=O)(O)O)c(Cl)c1)Cc1ccccc1-c1cccc(O)c1
3. O=P(O)(O)C(F)(F)c1ccc(CN(Cc2ccc(C(F)(F)P(=O)(O)O)cc2)S(=O)(=O)c2ccc3ccccc3c2)cc1
4. COc1ccccc1S(=O)(=O)N(Cc1ccc(N(CC(C)C(=O)O)C(=O)C(=O)O)cc1)Cc1ccc(N(CC(C)C(=O)O)C(=O)C(=O)O)cc1 (centres unmarked)

< 99 nM
100 to 249 nM
250 to 499 nM
> 25000 nM

Below are 6 molecules. Give each one its IC50.
1. CCCc1cc(-c2ccc(CN(Cc3ccc(C(F)(F)P(=O)(O)O)c(Cl)c3)S(=O)(=O)c3ccccc3OC)cc2)cc(C(=O)OC)c1O
2. O=S(=O)(c1ccccc1Cl)N(Cc1ccc(NS(=O)(=O)C(F)(F)F)cc1)Cc1ccc(Cl)c(Cl)c1
3. COC(=O)c1ccc(CN(Cc2ccc(C(F)(F)P(=O)(O)O)c(Br)c2)S(=O)(=O)c2ccccc2Cl)cc1
4. COc1ccc(S(=O)(=O)N(Cc2ccc(C(F)(F)P(=O)(O)O)cc2)Cc2ccc(C(F)(F)P(=O)(O)O)cc2)cc1
5. N#Cc1ccccc1S(=O)(=O)N(Cc1ccc(Cl)c(Cl)c1)Cc1ccc(C(F)(F)P(=O)(O)O)c(Br)c1
6. COc1ccccc1S(=O)(=O)N(CCc1cccc(-c2cccc(C(=O)O)c2)c1)Cc1ccc(C(F)(F)P(=O)(O)O)c(Cl)c1

250 to 499 nM
> 25000 nM
100 to 249 nM
250 to 499 nM
250 to 499 nM
250 to 499 nM

Below are 2 molecules. Give each one its IC50.
1. COc1ccc(OC)c(S(=O)(=O)N(Cc2ccc(C(O)CO)cc2)Cc2ccc(S(C)(=O)=O)cc2)c1 (centres unmarked)
2. COc1ccccc1S(=O)(=O)N(Cc1ccc(C#N)cc1)Cc1ccc(C=CC(=O)O)cc1

1: > 25000 nM; 2: > 25000 nM
